- target_entity: T1, Human BCMA (human, UniProt Q02223 1-54, limits assumed)
- T1 construct: Soluble analyte in SPR; construct not described; also called huBCMA; B-cell maturation antigen
- T1 sequence (looked up): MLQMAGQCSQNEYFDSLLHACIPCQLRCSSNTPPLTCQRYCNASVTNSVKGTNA
- test_details: SPR, IgG immobilised, 37 C
measured_parameter: T ½ (min)
Numbers only, in min.

Solved entries (count: 2):
- L3.PY/L1.PS/H2.LT (antibody, V domains shown, IgG) VH: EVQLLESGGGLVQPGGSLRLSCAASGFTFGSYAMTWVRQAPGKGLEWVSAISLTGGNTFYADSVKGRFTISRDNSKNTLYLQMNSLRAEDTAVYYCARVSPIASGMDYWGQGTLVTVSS VL: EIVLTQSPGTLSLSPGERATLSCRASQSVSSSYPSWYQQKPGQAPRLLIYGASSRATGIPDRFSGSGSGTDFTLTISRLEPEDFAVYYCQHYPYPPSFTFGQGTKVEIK: 2.49
- L3.PY/L1.PH/H2.HA (antibody, V domains shown, IgG) VH: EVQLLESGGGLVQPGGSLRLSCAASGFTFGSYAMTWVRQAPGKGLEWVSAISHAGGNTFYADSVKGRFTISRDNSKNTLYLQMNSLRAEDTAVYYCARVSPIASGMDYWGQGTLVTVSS VL: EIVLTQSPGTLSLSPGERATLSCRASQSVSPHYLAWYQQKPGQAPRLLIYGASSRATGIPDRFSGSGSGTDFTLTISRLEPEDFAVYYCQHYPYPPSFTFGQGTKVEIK: 9.99

Field request: T ½ | item: L3.PY/L1.AH/H2.QR (antibody, V domains shown, IgG) VH: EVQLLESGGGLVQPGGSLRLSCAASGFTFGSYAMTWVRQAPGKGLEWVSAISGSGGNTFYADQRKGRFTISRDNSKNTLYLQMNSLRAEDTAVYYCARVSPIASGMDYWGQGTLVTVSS VL: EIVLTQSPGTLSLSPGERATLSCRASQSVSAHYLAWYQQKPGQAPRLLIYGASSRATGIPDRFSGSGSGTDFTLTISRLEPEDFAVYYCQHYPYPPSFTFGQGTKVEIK
6.39
